# assay_target: human CYP11B1 (Homo sapiens (Human), UniProt P15538)
# Sequence (P15538 25-503): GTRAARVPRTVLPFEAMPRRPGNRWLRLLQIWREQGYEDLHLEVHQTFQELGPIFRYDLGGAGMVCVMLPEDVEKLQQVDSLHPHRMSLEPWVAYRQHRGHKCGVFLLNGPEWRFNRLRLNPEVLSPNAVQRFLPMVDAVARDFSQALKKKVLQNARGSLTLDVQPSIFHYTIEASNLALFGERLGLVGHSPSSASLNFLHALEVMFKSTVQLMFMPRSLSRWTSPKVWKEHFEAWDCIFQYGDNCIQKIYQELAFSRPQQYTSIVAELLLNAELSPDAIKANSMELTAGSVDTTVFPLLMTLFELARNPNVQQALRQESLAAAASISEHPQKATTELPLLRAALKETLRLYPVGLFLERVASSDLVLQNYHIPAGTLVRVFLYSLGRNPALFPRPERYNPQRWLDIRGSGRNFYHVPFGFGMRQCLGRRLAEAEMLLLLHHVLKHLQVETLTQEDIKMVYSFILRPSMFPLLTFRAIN
# assay_overview: G-402 cellular enzyme assay, human CYP11B1 (cortisol release)
# experimental_conditions: G-402 cells, 1 μM Deoxycortisol
readout_type: pEC50
# pEC50 = -log10(concentration in molar units)

QUERY: Report pEC50 for CCS(=O)(=O)N1CCCC(Nc2cncc(N3C(=O)c4ccc(Cl)cc4C3(C)C)c2)C1 (single isomer, unassigned) [Example 24] please.
RESULT: 4.42

QUERY: Moving on to CCS(=O)(=O)N1CCC(Nc2cncc(N3C(=O)c4ccc(C#N)cc4C3(C)C)c2)CC1
RESULT: 5.34

QUERY: Try CN(c1cncc(N2C(=O)c3ccc(Cl)cc3C2(C)C)c1)C1CN(S(C)(=O)=O)C1 next.
RESULT: 7.30

Reference for the values: patent US9695151B2
